In this section, each of the compounds is paired with its reported IC50.
tested on: 37T; assay: Cell cytotoxicity assay (MTS), 37T; type: cell-based; details: Homo sapiens, 72 h
experimental_endpoint: IC50 (µM)

INSERT INTO measurements (chemical_smiles, assay_system, experimental_endpoint, unit_of_measure, readout_value) VALUES
  ('CCOC(=O)c1ccc2[nH]c(-c3cccc(F)c3)cc(=O)c2c1', '37T', 'IC50', 'µM', 0.022),
  ('CCOC(=O)c1ccc2[nH]c(-c3ccccc3)cc(=O)c2c1', '37T', 'IC50', 'µM', 0.034);

----------
biological target: UniProt:P02554; assay: Binding affinity assay (surface plasmon resonance); conditions: steady-state model, 25° C.; read-out: dissociation constant (KD) for the tubulin-AS1712 complex
Sequence (P02554 whole entry): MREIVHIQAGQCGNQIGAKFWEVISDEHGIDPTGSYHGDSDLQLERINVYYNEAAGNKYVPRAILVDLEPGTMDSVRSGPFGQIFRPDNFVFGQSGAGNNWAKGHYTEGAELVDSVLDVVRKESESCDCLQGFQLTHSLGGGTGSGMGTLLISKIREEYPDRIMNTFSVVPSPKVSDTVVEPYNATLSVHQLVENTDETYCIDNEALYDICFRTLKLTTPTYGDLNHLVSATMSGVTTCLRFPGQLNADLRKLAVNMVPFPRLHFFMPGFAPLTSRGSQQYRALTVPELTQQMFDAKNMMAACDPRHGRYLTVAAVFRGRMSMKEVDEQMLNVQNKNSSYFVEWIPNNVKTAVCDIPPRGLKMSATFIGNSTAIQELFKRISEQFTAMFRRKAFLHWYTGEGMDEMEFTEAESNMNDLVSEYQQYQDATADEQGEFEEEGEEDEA
Sequence (P02550 whole entry partner): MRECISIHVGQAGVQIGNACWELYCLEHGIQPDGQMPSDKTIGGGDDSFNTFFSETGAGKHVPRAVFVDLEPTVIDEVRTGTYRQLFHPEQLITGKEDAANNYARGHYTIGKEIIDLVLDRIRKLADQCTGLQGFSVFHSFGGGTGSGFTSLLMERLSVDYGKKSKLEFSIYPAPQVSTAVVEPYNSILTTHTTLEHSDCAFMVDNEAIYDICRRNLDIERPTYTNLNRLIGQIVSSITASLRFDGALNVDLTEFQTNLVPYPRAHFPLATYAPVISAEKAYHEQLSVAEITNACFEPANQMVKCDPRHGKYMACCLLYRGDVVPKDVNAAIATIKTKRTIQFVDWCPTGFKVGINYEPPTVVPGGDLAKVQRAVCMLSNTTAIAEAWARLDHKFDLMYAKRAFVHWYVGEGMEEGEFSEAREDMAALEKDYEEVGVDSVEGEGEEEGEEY
pKd: −log10 of the molar value.
experimental_endpoint: pKd

INSERT INTO assay_data (compound, experimental_endpoint, readout_value) VALUES
  ('CCOC(=O)c1ccc2[nH]c(-c3ccccc3)cc(=O)c2c1 [AS1712]', 'pKd', 4.86);

----------
test system: PC-3; assay: Cell cytotoxicity assay (MTS), PC-3; assay type: cell-based; conditions: Homo sapiens
pIC50: −log10 of the molar value.
experimental_endpoint: pIC50

INSERT INTO results (compound, readout_value) VALUES
  ('CCOC(=O)c1ccc2[nH]c(-c3ccccc3)cc(=O)c2c1 [AS1712]', 7.35);

----------
Here, each record is paired with measured pIC50 data.
system: KBtax; test: Cell cytotoxicity assay (MTS), KBtax; assay type: cell-based, human; conditions: Homo sapiens; KBtax, P-gp overexpressing, paclitaxel-selected KB subline
pIC50: −log10 of the molar value.
experimental_endpoint: pIC50

INSERT INTO assay_data (molecule, readout_value) VALUES
  ('CC(=O)O[C@H]1C(=O)[C@@]2(C)[C@H]([C@H](OC(=O)c3ccccc3)[C@]3(O)C[C@H](OC(=O)[C@H](O)[C@@H](NC(=O)c4ccccc4)c4ccccc4)C(C)=C1C3(C)C)[C@]1(OC(C)=O)CO[C@@H]1C[C@@H]2O [Paclitaxel, paclitaxel]', 7.00),
  ('CCOC(=O)c1ccc2[nH]c(-c3ccccc3)cc(=O)c2c1 [AS1712]', 7.52),
  ('CCOC(=O)c1ccc2[nH]c(-c3cccc(F)c3)cc(=O)c2c1 [RJ-LC-15-8]', 7.52),
  ('CC[C@]1(O)C[C@H]2CN(CCc3c([nH]c4ccccc34)[C@@](C(=O)OC)(c3cc4c(cc3OC)N(C=O)[C@H]3[C@@](O)(C(=O)OC)[C@H](OC(C)=O)[C@]5(CC)C=CCN6CC[C@]43[C@@H]65)C2)C1 [Vincristine, vincristine]', 7.31),
  ('C/C(=C\c1csc(C)n1)[C@@H]1C[C@@H]2O[C@]2(C)CCC[C@H](C)[C@H](O)[C@@H](C)C(=O)C(C)(C)[C@@H](O)CC(=O)N1 [Ixabepilone, ixabepilone]', 7.46);

----------
System: KB
Experiment: Cell cytotoxicity assay (MTS), KB
Assay type: cell-based
Conditions: Homo sapiens
Procedure: Cells were seeded into the wells of 96-well plates (2000 cells/well). After an overnight culture, the cells were treated with different concentrations of a compound for 72 h. The CellTiter 96 AQueous one-solution cell proliferation assay (MTS) reagent was used to determine cytotoxicity. […] Next, the absorbance at 490 nm of the culture medium in each well was determined using a VersaMax microplate reader (Molecular Devices).
pIC50: −log10 of the molar value.
experimental_endpoint: pIC50

INSERT INTO measurements (compound, readout_value) VALUES
  ('CCOC(=O)c1ccc2[nH]c(-c3cccc(F)c3)cc(=O)c2c1 [RJ-LC-15-8]', 7.47),
  ('C/C(=C\c1csc(C)n1)[C@@H]1C[C@@H]2O[C@]2(C)CCC[C@H](C)[C@H](O)[C@@H](C)C(=O)C(C)(C)[C@@H](O)CC(=O)N1 [Ixabepilone, ixabepilone]', 8.10),
  ('CC[C@]1(O)C[C@H]2CN(CCc3c([nH]c4ccccc34)[C@@](C(=O)OC)(c3cc4c(cc3OC)N(C=O)[C@H]3[C@@](O)(C(=O)OC)[C@H](OC(C)=O)[C@]5(CC)C=CCN6CC[C@]43[C@@H]65)C2)C1 [Vincristine, vincristine]', 8.30),
  ('CCOC(=O)c1ccc2[nH]c(-c3ccccc3)cc(=O)c2c1 [AS1712]', 7.43);
